Biological target: furin, P09958;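 further: purified furin at 1:10 enzyme:substrate in 50 mM HEPES pH 7.5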
Sequence (P09958 whole entry): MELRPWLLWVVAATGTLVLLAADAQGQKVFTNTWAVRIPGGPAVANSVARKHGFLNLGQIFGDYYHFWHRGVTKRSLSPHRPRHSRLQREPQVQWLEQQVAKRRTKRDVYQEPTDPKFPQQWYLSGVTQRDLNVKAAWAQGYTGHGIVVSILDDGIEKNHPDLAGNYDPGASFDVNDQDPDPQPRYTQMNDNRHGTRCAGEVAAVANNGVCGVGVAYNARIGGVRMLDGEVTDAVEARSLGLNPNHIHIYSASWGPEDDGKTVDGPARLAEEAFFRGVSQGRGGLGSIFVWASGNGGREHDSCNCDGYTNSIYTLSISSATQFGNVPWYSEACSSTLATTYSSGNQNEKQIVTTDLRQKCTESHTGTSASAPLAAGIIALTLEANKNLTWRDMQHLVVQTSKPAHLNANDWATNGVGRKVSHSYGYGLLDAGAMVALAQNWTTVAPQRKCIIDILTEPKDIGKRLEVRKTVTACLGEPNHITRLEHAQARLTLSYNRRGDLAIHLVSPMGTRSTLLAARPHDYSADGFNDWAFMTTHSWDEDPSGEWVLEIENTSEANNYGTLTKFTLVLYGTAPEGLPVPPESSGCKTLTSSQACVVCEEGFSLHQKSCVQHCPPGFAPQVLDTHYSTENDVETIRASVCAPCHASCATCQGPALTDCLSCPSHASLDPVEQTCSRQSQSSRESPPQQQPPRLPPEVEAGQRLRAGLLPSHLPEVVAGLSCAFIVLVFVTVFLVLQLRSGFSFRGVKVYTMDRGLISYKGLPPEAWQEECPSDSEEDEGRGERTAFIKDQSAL
Assay: furin cleavage Z-score vs untreated control; higher = more cleavage, active = 3.5 or more, inactive = 1 or less, 8 variable residues between constant flanks
Details: 15 min
The other results are listed elsewhere or left out. The hit rate among all sequences tested is not known here.
Hi! Could you answer with just one of these? active, inactive

Some solved cases for reference:
CAQDAVSRTQAGNASASA [HC900] = inactive
CADEEVVTSTAGNASASA [HC2292] = inactive
CAGLRDLAVAAGNASASA [HC642] = inactive
CAQTRGLLGCAGNASASA [HC678] = inactive

-- ask Outcome? CADITKLLLAAGNASASA [HC604]
-- reply inactive

-- ask Can you look up the reported call for CAMEHCSQHLAGNASASA [HC1715] for me?
-- reply inactive
